- SUBJECT OF TEST: T1, cynomolgus SEMA4A expressed on expi293 cells (UniProt ID G7NV79) (cynomolgus, UniProt Q9H3S1 33-761 (human entry))
- T1 construct: Transient transfection in expi293 cells; also called cyno SEMA4A
- T1 chain: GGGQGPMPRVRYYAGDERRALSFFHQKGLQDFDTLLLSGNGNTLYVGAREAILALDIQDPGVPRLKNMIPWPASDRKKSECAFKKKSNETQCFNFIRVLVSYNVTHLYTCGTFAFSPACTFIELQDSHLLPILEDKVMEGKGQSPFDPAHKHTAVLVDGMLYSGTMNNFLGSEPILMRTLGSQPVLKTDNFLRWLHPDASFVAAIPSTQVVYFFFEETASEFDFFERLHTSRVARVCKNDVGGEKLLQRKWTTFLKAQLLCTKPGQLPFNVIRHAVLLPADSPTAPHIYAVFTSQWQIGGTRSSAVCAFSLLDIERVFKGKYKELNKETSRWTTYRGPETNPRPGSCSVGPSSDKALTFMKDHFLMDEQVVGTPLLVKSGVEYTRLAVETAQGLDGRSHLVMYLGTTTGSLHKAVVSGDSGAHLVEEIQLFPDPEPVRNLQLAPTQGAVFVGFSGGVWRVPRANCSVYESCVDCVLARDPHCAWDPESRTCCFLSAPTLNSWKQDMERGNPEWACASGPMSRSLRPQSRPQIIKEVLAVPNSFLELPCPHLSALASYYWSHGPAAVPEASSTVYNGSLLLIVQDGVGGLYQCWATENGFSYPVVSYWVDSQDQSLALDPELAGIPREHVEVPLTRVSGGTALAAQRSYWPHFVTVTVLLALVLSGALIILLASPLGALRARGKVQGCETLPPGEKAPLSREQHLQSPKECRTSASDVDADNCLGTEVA
- TEST DESCRIPTION: Mirrorball direct binding, dilution series on expi293 cells transiently transfected with cyno SEMA4A, anti-human Alexa Fluor 647

BINDER	binding result
5Hg4-5Lg1 human Alya IgG1 (antibody, V domains shown, Humanised 5E3; human IgG1 Alya constant (239iCys, S442C, EU), lambda light chain; purified, unconjugated) VH: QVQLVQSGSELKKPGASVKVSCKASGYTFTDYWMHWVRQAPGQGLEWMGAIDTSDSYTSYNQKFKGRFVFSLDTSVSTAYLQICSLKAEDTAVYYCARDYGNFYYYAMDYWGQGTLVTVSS VL: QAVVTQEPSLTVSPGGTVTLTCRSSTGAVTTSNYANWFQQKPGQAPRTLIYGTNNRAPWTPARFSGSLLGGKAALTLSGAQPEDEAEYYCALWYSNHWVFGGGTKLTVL	binds
5Hg4-5Lg2 human Alya IgG1 (antibody, V domains shown, Humanised 5E3; human IgG1 Alya constant (239iCys, S442C, EU), lambda light chain; purified, unconjugated) VH: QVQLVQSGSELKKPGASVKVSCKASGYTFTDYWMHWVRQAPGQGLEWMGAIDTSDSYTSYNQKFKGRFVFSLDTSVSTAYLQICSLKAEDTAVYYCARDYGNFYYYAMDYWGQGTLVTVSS VL: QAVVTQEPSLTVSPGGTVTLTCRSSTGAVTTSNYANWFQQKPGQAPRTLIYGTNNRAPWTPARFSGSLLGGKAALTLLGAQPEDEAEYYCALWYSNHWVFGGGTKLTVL	binds
5Hg1-5Lg1 human Alya IgG1 (antibody, V domains shown, Humanised 5E3; human IgG1 Alya constant (239iCys, S442C, EU), lambda light chain; purified, unconjugated) VH: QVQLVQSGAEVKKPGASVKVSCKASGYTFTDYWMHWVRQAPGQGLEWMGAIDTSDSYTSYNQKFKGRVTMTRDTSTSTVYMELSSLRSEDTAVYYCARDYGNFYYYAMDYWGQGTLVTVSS VL: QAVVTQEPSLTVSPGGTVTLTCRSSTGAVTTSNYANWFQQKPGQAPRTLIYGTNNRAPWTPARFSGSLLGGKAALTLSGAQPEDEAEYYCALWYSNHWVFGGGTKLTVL	binds
